Test: Hygroscopicity by scanned gravimetric vapour sorption
Assay type: physicochemical
Conditions: European Pharmacopea Technical Guide (1999); 40% to 80% relative humidity, upwards scan
Description: The mass change between 40% relative humidity and 80% relative humidity in the upwards scan was considered.
Measurement type: Hygroscopicity classification

# Compound, Measurement type, Result
measured = [
    ("COc1ccc(OC)c2[nH]c(CCCN(C)CCC3(OC(=O)C(C)C)CC4CCC3C=C4c3ccccc3)nc12.O=C(O)/C=C\\C(=O)O.O=C(O)/C=C\\C(=O)O (stereo not shown) [di-maleic acid salt of COMPOUND]", "Hygroscopicity classification", "Non hygroscopic"),
    ("COc1ccc(OC)c2[nH]c(CCCN(C)CCC3(OC(=O)C(C)C)CC4CCC3C=C4c3ccccc3)nc12.COc1ccc(OC)c2[nH]c(CCCN(C)CCC3(OC(=O)C(C)C)CC4CCC3C=C4c3ccccc3)nc12.O=C(O)/C=C/C(=O)O.O=C(O)/C=C/C(=O)O.O=C(O)/C=C/C(=O)O (stereo not shown) [sesqui-fumaric acid salt of COMPOUND]", "Hygroscopicity classification", "Non hygroscopic"),
    ("Br.Br.COc1ccc(OC)c2[nH]c(CCCN(C)CCC3(OC(=O)C(C)C)CC4CCC3C=C4c3ccccc3)nc12 (stereo not shown) [di-hydrobromic acid salt of COMPOUND]", "Hygroscopicity classification", "Non hygroscopic"),
]

---

target: UniProt:Q13936; assay: In vitro assay L channel (FLIPR, KCl-induced calcium fluorescence); conditions: HEK293 cells expressing human Cav1.2 with β-2a and α2δ-1; 20 mM KCl; read-out: L channel antagonistic activity IC50
Sequence (Q13936 whole entry): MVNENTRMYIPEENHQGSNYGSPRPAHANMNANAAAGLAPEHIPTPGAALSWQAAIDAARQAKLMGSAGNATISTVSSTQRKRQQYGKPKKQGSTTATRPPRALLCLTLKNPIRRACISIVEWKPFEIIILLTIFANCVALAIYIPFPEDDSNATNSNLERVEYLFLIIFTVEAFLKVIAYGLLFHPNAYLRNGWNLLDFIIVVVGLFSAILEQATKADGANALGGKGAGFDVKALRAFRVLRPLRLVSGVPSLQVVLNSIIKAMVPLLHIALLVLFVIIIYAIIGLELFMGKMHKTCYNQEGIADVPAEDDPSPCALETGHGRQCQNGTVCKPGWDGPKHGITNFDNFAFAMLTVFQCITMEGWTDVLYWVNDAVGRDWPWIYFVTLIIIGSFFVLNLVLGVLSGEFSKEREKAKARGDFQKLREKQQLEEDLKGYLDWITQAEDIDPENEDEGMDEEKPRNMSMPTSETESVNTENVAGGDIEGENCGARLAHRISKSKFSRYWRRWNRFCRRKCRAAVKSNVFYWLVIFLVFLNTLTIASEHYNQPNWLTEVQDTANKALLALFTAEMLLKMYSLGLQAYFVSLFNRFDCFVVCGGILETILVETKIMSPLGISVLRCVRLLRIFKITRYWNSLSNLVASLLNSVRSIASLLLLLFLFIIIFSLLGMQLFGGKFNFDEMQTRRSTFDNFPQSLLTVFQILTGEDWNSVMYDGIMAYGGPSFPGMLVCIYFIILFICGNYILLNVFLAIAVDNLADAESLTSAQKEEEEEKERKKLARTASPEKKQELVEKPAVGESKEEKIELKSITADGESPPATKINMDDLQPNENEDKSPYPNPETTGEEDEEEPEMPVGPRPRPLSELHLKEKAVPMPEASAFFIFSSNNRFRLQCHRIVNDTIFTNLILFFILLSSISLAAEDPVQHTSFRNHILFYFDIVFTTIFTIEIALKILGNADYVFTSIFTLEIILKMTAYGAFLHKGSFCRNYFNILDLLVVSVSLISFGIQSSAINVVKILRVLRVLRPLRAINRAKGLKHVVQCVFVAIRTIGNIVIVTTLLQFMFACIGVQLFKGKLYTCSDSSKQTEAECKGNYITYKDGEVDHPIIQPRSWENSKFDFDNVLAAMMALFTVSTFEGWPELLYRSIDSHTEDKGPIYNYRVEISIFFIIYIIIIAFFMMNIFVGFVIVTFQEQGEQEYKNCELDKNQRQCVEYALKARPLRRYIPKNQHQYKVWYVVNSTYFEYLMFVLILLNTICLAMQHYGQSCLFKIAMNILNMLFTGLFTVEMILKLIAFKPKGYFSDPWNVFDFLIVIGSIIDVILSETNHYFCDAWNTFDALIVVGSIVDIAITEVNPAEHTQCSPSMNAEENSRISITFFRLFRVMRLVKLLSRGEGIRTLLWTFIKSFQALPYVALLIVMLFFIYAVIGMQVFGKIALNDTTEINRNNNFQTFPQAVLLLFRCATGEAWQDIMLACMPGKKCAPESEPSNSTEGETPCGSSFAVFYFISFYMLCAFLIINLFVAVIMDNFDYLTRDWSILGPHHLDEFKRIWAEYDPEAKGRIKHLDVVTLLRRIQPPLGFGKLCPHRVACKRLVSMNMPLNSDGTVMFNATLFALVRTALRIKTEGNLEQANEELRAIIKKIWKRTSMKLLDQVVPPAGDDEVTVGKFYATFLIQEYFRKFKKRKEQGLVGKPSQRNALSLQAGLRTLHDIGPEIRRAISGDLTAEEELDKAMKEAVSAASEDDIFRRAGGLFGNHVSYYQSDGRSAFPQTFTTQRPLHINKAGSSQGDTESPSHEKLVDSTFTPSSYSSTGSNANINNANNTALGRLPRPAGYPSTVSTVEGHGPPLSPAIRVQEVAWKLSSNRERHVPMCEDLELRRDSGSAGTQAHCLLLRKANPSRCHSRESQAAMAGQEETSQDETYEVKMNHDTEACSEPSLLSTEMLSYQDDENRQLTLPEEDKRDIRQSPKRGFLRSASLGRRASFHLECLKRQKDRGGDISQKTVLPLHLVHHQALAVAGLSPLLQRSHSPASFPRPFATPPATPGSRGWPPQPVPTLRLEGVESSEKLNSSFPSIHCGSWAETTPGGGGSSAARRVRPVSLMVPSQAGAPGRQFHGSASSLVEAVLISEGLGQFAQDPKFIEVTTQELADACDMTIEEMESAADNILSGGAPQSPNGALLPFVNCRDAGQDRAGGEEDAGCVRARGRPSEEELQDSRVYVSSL
Sequence (Q08289 whole entry partner): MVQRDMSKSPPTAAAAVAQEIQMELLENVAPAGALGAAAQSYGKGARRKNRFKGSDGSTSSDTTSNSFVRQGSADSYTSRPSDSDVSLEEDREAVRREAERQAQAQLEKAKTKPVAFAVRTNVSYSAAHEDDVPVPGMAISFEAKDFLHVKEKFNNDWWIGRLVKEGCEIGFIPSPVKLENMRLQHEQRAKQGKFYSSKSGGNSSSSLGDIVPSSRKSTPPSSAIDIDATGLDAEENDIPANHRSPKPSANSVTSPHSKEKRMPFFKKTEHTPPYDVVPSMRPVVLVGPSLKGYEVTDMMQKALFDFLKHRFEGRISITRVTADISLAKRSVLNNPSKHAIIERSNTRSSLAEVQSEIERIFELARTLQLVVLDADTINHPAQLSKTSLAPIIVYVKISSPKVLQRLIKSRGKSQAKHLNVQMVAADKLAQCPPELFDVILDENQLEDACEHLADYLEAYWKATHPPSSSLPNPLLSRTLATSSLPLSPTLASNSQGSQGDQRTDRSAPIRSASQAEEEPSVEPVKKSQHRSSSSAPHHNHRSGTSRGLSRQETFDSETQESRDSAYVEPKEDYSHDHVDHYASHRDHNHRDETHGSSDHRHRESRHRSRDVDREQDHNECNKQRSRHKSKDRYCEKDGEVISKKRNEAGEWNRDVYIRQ
Sequence (P54289 25-946 partner limits assumed): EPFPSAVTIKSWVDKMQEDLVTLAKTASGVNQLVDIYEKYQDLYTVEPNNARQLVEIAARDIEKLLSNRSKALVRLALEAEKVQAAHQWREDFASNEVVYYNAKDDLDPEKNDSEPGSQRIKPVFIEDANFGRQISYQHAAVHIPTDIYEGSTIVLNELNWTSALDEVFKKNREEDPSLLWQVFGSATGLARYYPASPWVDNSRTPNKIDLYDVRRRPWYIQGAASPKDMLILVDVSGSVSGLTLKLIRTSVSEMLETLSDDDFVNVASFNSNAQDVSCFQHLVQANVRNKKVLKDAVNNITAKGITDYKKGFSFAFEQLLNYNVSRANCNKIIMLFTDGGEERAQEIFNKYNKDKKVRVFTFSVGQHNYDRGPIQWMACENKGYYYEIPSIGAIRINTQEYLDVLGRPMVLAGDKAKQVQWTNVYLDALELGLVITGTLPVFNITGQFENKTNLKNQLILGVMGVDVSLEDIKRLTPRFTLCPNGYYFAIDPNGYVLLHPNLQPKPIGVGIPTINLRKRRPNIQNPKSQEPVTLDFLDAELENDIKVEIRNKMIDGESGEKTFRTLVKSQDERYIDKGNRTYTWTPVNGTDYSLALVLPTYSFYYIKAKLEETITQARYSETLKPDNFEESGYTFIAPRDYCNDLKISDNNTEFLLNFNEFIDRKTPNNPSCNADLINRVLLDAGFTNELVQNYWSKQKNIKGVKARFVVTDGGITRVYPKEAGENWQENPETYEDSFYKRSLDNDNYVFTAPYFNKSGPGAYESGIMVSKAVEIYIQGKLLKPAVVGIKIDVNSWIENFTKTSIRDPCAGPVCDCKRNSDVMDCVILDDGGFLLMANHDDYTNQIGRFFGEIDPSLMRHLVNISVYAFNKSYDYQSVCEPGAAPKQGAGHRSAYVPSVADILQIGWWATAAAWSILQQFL
Sequence (P54289 947-1103 partner limits assumed): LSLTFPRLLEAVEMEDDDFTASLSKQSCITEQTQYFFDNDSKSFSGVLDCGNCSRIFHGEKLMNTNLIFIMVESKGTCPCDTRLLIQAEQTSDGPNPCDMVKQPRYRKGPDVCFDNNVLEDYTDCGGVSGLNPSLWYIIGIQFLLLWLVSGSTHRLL
pIC50: −log10 of the molar value.
pIC50 by entry:

The reported value for COc1ccc(OC)c2[nH]c(CCCN(C)CC[C@]3(OC(=O)C(C)C)C[C@H]4CC[C@@H]3C=C4c3ccccc3)nc12 [Reference Example 3A] in terms of pIC50 is 6.36 to 6.81

The reported value for COc1ccc(OC)c2[nH]c(CCCN(C)CC[C@@]3(OC(=O)C(C)C)C[C@@H]4CC[C@H]3C=C4c3ccccc3)nc12 [Reference Example 2A] in terms of pIC50 is 6.36 to 6.81

The reported value for COc1ccc(OC)c2[nH]c(CCCN(C)CC[C@]3(OC(=O)C(C)C)C[C@H]4CC[C@@H]3C=C4c3ccccc3)nc12 (racemic) [Reference Example 1A] in terms of pIC50 is 6.36 to 6.81

---

Hygroscopicity mass change by entry:
assay: Hygroscopicity by scanned gravimetric vapour sorption; format: physicochemical; conditions: between 40% and 80% relative humidity, upwards scan

The reported value for COc1ccc(OC)c2[nH]c(CCCN(C)CCC3(OC(=O)C(C)C)CC4CCC3C=C4c3ccccc3)nc12.O=C(O)/C=C\C(=O)O.O=C(O)/C=C\C(=O)O (stereo not shown) [di-maleic acid salt of COMPOUND] in terms of Hygroscopicity mass change is 0.1%

The reported value for COc1ccc(OC)c2[nH]c(CCCN(C)CCC3(OC(=O)C(C)C)CC4CCC3C=C4c3ccccc3)nc12.COc1ccc(OC)c2[nH]c(CCCN(C)CCC3(OC(=O)C(C)C)CC4CCC3C=C4c3ccccc3)nc12.O=C(O)/C=C/C(=O)O.O=C(O)/C=C/C(=O)O.O=C(O)/C=C/C(=O)O (stereo not shown) [sesqui-fumaric acid salt of COMPOUND] in terms of Hygroscopicity mass change is 0.1%

The reported value for Br.Br.COc1ccc(OC)c2[nH]c(CCCN(C)CCC3(OC(=O)C(C)C)CC4CCC3C=C4c3ccccc3)nc12 (stereo not shown) [di-hydrobromic acid salt of COMPOUND] in terms of Hygroscopicity mass change is 0.1%

Every entry's value here was drawn from patent US8492555B2.
